Numbers sourced from patent EP4534542A1.

System: MeWo (human melanoma cells)
Experiment: Cell viability assay (resazurin), cytotoxic activity against solid tumours
Format: cell-based
Conditions: Homo sapiens, MeWo; 72 h treatment, resazurin assay, mean ± SEM; read-out: IC50 MeWo (Melanoma; BRAF WT)
measured-attribute: IC50 (µM)
Express your answer in µM, writing the number without its unit.

Reported IC50 ( CC[S@@+]([O-])[C@H]1O[C@H](COC(C)=O)[C@@H](OC(C)=O)[C@H](N=C=S)[C@H]1OC(C)=O [(RS)-17α] ) = 113

Reported IC50 ( CCS[C@@H]1O[C@H](COC(C)=O)[C@@H](OC(C)=O)[C@H](N=C=S)[C@H]1OC(C)=O ) = 49.9

Reported IC50 ( CC(=O)OC[C@H]1O[C@@H]([S@+]([O-])c2ccccc2)[C@H](OC(C)=O)[C@@H](N=C=S)[C@@H]1OC(C)=O [(RS)-18β] ) = 21.9

Reported IC50 ( CC(=O)OC[C@H]1O[C@@H]([S@@+]([O-])c2ccccc2)[C@H](OC(C)=O)[C@@H](N=C=S)[C@@H]1OC(C)=O [(SS)-18β] ) = 16

Reported IC50 ( CC(=O)OC[C@H]1O[C@@H](Sc2ccccc2)[C@H](OC(C)=O)[C@@H](N=C=S)[C@@H]1OC(C)=O ) = 30.2

New cases:
Reported IC50 ( CS[C@@H]1O[C@H](COC(C)=O)[C@@H](OC(C)=O)[C@H](N=C=S)[C@H]1OC(C)=O ) = 55.9

Reported IC50 ( CC[S@+]([O-])[C@@H]1O[C@H](COC(C)=O)[C@@H](OC(C)=O)[C@H](N=C=S)[C@H]1OC(C)=O [(SS)-17β] ) = 51.5

Reported IC50 ( C[S+]([O-])CCCCN=C=S (centres unmarked) [SFN, sulforaphane, reference compound] ) = 12.9

---

Tested on: Jurkat (Acute lymphoblastic leukaemia)
Experiment: Antileukemic activity, cell viability (CCK-8 Cell Counting Kit)
Assay type: cell-based
Settings: Homo sapiens, 18 h incubation, compounds 0 - 100 µM, read-out: IC50 Cancer cells Jurkat (Acute lymphoblastic leukaemia)
Description: HaCaT cells (human keratinocytes, reference control), A549 (human lung adenocarcinoma cells), MeWo (human melanoma cells) and T24 (human bladder cancer cells) were purchased from Cell Lines Service (CLS). […] For the leukemic cell lines, the CCK-8 Cell Counting Kit (Dojindo Molecular Technologies) was used according to manufacturers instructions. […] OD at 450 nm was obtained using a MultiskanTM GO microplate reader (Thermo Fisher Scientific, Waltham, MA, EE.UU). […]
Listing of recorded pIC50 by entry.
Just so you know, pIC50 here is -log10 of the concentration in molar units; reply with that number alone.

Worked examples, 2 compounds total:
Reported pIC50 ( CC[S@@+]([O-])[C@H]1O[C@H](COC(C)=O)[C@@H](OC(C)=O)[C@H](N=C=S)[C@H]1OC(C)=O [(RS)-17α] ) = 4.42

Reported pIC50 ( CS(=O)(=O)CCCN=C=S [Compound 6, reference compound] ) = 4.99

New cases:
Reported pIC50 ( CCS(=O)(=O)[C@@H]1O[C@H](COC(C)=O)[C@@H](OC(C)=O)[C@H](N=C=S)[C@H]1OC(C)=O ) = 4.35

Reported pIC50 ( CC(=O)OCC1OC([S+](C)[O-])C(OC(C)=O)C(N=C=S)C1OC(C)=O (stereo not drawn) [(SS)-16β] ) = 3.89

Reported pIC50 ( C[S+]([O-])CCCN=C=S (racemic) [rac-5, reference compound] ) = 4.86

Reported pIC50 ( CSCCCN=C=S [Compound 4, (3-isothiocyanatopropyl)(methyl)sulfane, reference compound] ) = 5.05

Reported pIC50 ( CCS[C@@H]1O[C@H](COC(C)=O)[C@@H](OC(C)=O)[C@H](N=C=S)[C@H]1OC(C)=O ) = 4.75

Reported pIC50 ( CC[S@+]([O-])[C@@H]1O[C@H](COC(C)=O)[C@@H](OC(C)=O)[C@H](N=C=S)[C@H]1OC(C)=O [(SS)-17β] ) = 4.05
